# targetSystem: T1, human RXFP1 (human, UniProt Q9HBX9 1-757)
# T1 sequence (looked up): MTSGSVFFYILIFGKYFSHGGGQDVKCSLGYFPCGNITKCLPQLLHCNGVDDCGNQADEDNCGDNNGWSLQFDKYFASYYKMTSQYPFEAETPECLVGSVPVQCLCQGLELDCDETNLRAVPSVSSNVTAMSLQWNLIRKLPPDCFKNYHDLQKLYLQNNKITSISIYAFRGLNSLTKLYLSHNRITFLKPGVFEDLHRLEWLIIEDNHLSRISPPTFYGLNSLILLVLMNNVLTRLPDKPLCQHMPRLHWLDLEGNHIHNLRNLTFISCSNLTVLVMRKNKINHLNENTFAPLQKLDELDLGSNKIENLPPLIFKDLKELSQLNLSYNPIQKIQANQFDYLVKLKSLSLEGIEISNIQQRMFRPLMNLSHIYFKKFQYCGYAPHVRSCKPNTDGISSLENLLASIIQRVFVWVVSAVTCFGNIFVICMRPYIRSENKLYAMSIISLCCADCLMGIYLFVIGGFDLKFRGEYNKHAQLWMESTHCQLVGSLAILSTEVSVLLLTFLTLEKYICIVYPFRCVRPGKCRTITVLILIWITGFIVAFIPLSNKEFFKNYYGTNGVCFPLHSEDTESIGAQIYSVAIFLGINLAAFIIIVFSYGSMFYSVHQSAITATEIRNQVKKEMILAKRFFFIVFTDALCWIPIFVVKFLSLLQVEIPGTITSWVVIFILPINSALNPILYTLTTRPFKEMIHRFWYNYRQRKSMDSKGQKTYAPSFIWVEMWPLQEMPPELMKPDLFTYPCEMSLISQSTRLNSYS
# measurementDescription: cell-based or functional assay
Non-standard residues stand in square brackets, D forms with d. No end group written: not given here. PEG20K = 20 kDa polyethylene glycol, linked to pAF (e.g. via oxime linkage); Phe(4-Ac) = CC(=O)c1ccc(C[C@H](N)C(=O)O)cc1
testReadout: In vitro Activity Fold Loss (fold)

[[record]]
binder = "RLX-A-BV7-20KPEG (ligand, not fully specified (bridges); ends and bridges not checked) chain 1: QLYSALANKCCHVGCTKRSLARFC chain 2: ASWMEE[Phe(4-Ac)](PEG20K)IKLCGRELVRAQIAICGMSTWS"
testreadout = "In vitro Activity Fold Loss"
assayvalue = 15

[[record]]
binder = "RLX-A-AA5-20KPEG (ligand, not fully specified; para-acetylphenylalanine (pAF) at position 5 of the A chain, 20K PEGylated) chain 1: QLYSXLANKCCHVGCTKRSLARFC chain 2: ASWMEEVIKLCGRELVRAQIAICGMSTWS"
testreadout = "In vitro Activity Fold Loss"
assayvalue = 12

[[record]]
binder = "RLX-A-BE5-20KPEG (ligand, not fully specified (bridges); ends and bridges not checked) chain 1: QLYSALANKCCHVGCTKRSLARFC chain 2: ASWM[Phe(4-Ac)](PEG20K)EVIKLCGRELVRAQIAICGMSTWS"
testreadout = "In vitro Activity Fold Loss"
assayvalue = 17

[[record]]
binder = "RLX-A-BA18-20KPEG (ligand, not fully specified (bridges); ends and bridges not checked) chain 1: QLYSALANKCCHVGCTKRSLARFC chain 2: ASWMEEVIKLCGRELVR[Phe(4-Ac)](PEG20K)QIAICGMSTWS"
testreadout = "In vitro Activity Fold Loss"
assayvalue = 48

[[record]]
binder = "RLX-A-AV13-20KPEG (ligand, not fully specified; para-acetylphenylalanine (pAF) at position 13 of the A chain, 20K PEGylated) chain 1: QLYSALANKCCHXGCTKRSLARFC chain 2: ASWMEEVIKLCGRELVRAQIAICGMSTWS"
testreadout = "In vitro Activity Fold Loss"
assayvalue = 17

[[record]]
binder = "RLX-A-AQ1-20KPEG (ligand, pACF (para-acetylphenylalanine) at position 1 of the A chain, linked to a 20 kDA PEG via an oxime linkage) chain 1: XLYSALANKCCHVGCTKRSLARFC chain 2: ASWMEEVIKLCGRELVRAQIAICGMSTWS"
testreadout = "In vitro Activity Fold Loss"
assayvalue = 12

